System: MS2 coat protein
assay.info: apparent Kd, MS2 coat protein; higher = weaker binding; RNA-MaP array
condition.context: designed as: OFF switch for flavin mononucleotide; no ligand
Label rule met when apparent Kd is at or above 7 nM; otherwise label rule not met.

# input.sequence, target.or.system, group.label
data = [
    ("UUAUAUCUUUAGGAUAUGCUGUGUCGGCAACUAGCAGAAGGAAAGACAUGAGGAUCACCCAUGUUGGUGCGUUC", "MS2 coat protein", "rule met"),
    ("GUGAGACAUGAGGAUCACCCAUGUAAGGAUAUUGCCUCGACCAUAUAAACAUAUCGGACAAGAAGGUACAGGAG", "MS2 coat protein", "rule met"),
    ("UUAGCACAUGAGGAUCACCCAUGUCAGGAUAUACGGAAUGUCCUCUACAGGGCGCGCUGUAGAAGGGACCGGGC", "MS2 coat protein", "rule met"),
    ("CCAUGAAGAUAGGAUAUAGGUCGAGUUCCCGAACAAGAAGGAUCGACAUGAGGAUCACCCAUGUGCAUCCAUGA", "MS2 coat protein", "rule met"),
    ("AAAGAAAGAGUGAGGAUAUGAUAUAAACAAAAGUAACAGAAGGCACAUGAGGAUCACCCAUGUGACUAUAGAAU", "MS2 coat protein", "rule not met"),
    ("ACACCUAUAGUGAGGAUAUAGAUCGAAACAAUCGACAAGAAGGCACAUGAGGAUCACCCAUGUAAGGCGCAAAU", "MS2 coat protein", "rule not met"),
]

* * *

The entries below are paired with their reported apparent Kd.
Test system: MS2 coat protein
assay.info: apparent Kd, MS2 coat protein; higher = weaker binding; RNA-MaP array; FMN 200 µM where present
condition.context: ligand present: flavin mononucleotide; designed as: ON switch for flavin mononucleotide
outcome.measure: apparent Kd (nM)

# input.sequence, outcome.measure, endpoint.unit, measured.value
rows = [
    ("GCACAUGGCAUAGGAUAUAGAAGUAUACAUUAUAUAGGUAGUGUCACAACACUAGAAGGAUGAAACAUGAGGAUCACCCAUGUA", "apparent Kd", "nM", 12.3),
    ("GACGUCGGAAGUCGACGCCACUACAAGGAUAUGCACAUGAGGAUCACCCAUGUUACGAAAUCGUAGCAGAAGGUGUAGUCGUCU", "apparent Kd", "nM", 24),
    ("UUGGAGUACGUAGGAUAUGUAGGAUAUUCCUACAUGAGGAUCACCCAUGUUUACAUGGAAGAAGGACAGAAGGACGUGCUCCAU", "apparent Kd", "nM", 14.7),
    ("UGGUACUAGGGAGGAUAUGGGAAGAUACAUGAGGAUCACCCAUGUUUAAGAAUGCCGAGAGCCAACUAGAAGGCCCUAGUACCU", "apparent Kd", "nM", 16.7),
]

* * *

Test system: MS2 coat protein
assay.info: apparent Kd, MS2 coat protein; higher = weaker binding; RNA-MaP array; FMN 200 µM where present
condition.context: designed as: ON switch for flavin mononucleotide; no ligand
Label Y when apparent Kd is at or above 40 nM; otherwise label N.

# input.sequence, target.or.system, group.label
rows = [
    ("CUAUGAACGAUAGGAUAUACUGAGGUUGAGUGGGUAGAAGGAUCGAUAGUGUAGAAGACAUGAGGAUCACCCAUGUUAUGGAUU", "MS2 coat protein", "Y"),
    ("UCAUUUUACACAGGAUAUACUCAUAUACAGUUGUUUGGCUCUUACAUGUUAGUAGAAGGGUGCAACAUGAGGAUCACCCAUGUA", "MS2 coat protein", "Y"),
    ("ACUAUAUAUGAGAAGGUGAAGUGGAAACAUGAGGAUCACCCAUGUAAUACGAAGCGUAUUUUUAUCAAGGAUAUCAUAUAUAGA", "MS2 coat protein", "N"),
    ("UUUUCAUCAUCAGGAUAUUAACGUGGGCUACUUUAAGAAGGGAUAGUGGGAGAGGAUGUGAAACAUGAGGAUCACCCAUGUUGU", "MS2 coat protein", "N"),
    ("UUUAUAAAUUAGAAGGCGUGAUGAAUUACAAUAGACAUGAGGAUCACCCAUGUGUAUUCAUGUCAUGAGGAUAUAGUCAUAUAU", "MS2 coat protein", "Y"),
    ("GUGGUUGUCGUAGGAUAUGUAGGAUAUUCCUACAUGAGGAUCACCCAUGUUCGCAUGGAAGAAGGACAGAAGGACGAUGACCAG", "MS2 coat protein", "Y"),
    ("GUCUUAUUACAGAAGGUGUUUUACAUGAGGAUCACCCAUGUUUUAAUGUUUAAAUUUGAUAUUUACAAGGAUAUGUACUAAUCU", "MS2 coat protein", "N"),
    ("AUGUGGUUCCCGGCCAUCGUGUACGAGGAUAUCCUCGAACAUGAGGAUCACCCAUGUAACGUUGUGGAGAAGGCGUACGCUUGG", "MS2 coat protein", "Y"),
    ("AAAAAAAAAACUGAGGAUAUGAAAUAAUAGACAUGAGGAUCACCCAUGUUUUCGGUCGAAAAAAUGCAGAAGGCAGAAAAAAAAAA", "MS2 coat protein", "N"),
    ("CAGCGAUAGCUGAACAAUCUAUCUGAGGAUAUUCAUAUUAAAACAUGAGGAUCACCCAUGUAUUGGGAGAAGGCAGAUAGAUUG", "MS2 coat protein", "Y"),
    ("UUGGACGUCGUAGGAUAUGUAGGAUAUUCCUACAUGAGGAUCACCCAUGUUGACAUGGAAGAAGGACAGAAGGGCGAUGUCCAU", "MS2 coat protein", "Y"),
    ("AGACCGCUACGCCGGUUUGACGCACAGGAUAUGCGGUUACAUGAGGAUCACCCAUGUGGCCAUGAGUAGAAGGGUGGUUCGUCC", "MS2 coat protein", "Y"),
    ("GUGGUCAGACAUGAGGAUCACCCAUGUGGAAUAAAUAACAGACAGGAUAUGUAAUAUAGGAUAUAACAGAAGGGUCGAUUGGUG", "MS2 coat protein", "Y"),
]

* * *

Test system: MS2 coat protein
assay.info: apparent Kd, MS2 coat protein; higher = weaker binding; RNA-MaP array; FMN 200 µM where present
condition.context: designed as: OFF switch for flavin mononucleotide; no ligand

# input.sequence, apparent Kd
measured = [
    ("CGAUAUUAUAGAGGAUAUGUUUAACAUGAGGAUCACCCAUGUGAGGUGGAAUUAAUGUAUAACUUACAGAAGGCUAUACAAUCG", "417 nM"),
    ("CAGAAGUCAGGAUAUGCAUGGCGGGACUUGCGUCGUGGCGUGCAGAAGGGACAUGAGGAUCACCCAUGUAAAGA", "52.5 nM"),
    ("CGCAAGUCAGGAUAUUCGACAGGUAAAUCAGUGGAUCAGAAGGAGAAGGGACAUGAGGAUCACCCAUGUAAGUA", "49.7 nM"),
    ("AGAGUGUGAGGAUAUAUGGUGCAGAUGAAGGGAUAGAAGGAGUAGAAGGUACAUGAGGAUCACCCAUGUUAGGA", "27.4 nM"),
    ("UGGACUGGGCAGAAGGGACAUGAGGAUCACCCAUGUCUUGGGCUACUUCAGUCAGGAUAUGCCCAAUAAAUAUCCGUGCAUCAA", "13.3 nM"),
    ("CAAAAGGAAGGAUAUGCAUCGGGAGGUGCUCAGCAUCAAAUACAUGAGGAUCACCCAUGUAGAAGGUCUGAAAA", "32.1 nM"),
    ("GAAUUAUUGAUCCAAUUUUACAACAUGAGGAUCACCCAUGUGCAGGAUAUCGUGUGUUUUAUAUUCGAGAAGGGCAUGAACUUU", "213 nM"),
    ("UUAUUUUGUCAAGGAUAUGUAGUAUUGAUUUGAAAACAUGAGGAUCACCCAUGUAUAUGGUGGGAACAGAAGGUGAAUGUUGAA", "311 nM"),
    ("CAUUUGUGAGGAUAUCAGGUGUGCUAGCGUACUGGUACAUCUGAGAAGGCACAUGAGGAUCACCCAUGUUCCUC", "50 nM"),
    ("CAGUACUGAGGAUAUACAUGAGGAUCACCCAUGUGUUCCAGCUAGGAAACUAGCAAUAGUAGAAGGCAGUACUG", "20.1 nM"),
    ("GGUACUCAAAGAGUACCAAUACGAACAUGAGGAUCACCCAUGUAGGAUAUGCUACUCAAAGAGUAGCAGAAGGAUAUGAUCCAU", "77.2 nM"),
    ("UUGAUGUCAUCAGGAUAUAGUAUUUAAGACAUAUAUUUUUUCAAACAUGAGGAUCACCCAUGUCGCUAGAAGGGAUUAUAGAUU", "41 nM"),
    ("GUGUAGAGAGGAUAUACAUGAGGAUCACCCAUGUGAAUAAGAUAGAAUAAGAUAAAGUGUAGAAGGCUUAGUGU", "33.5 nM"),
    ("GUAGUGUAUGUAGGAUAUGUGAAGGAAACAUUUACAGAAGGACAUGAGGAUCACCCAUGUAUUACAGUCAGCAAUCUGACUGUU", "23.6 nM"),
    ("UUGUUGUAUGUAGGAUAUGCAUAUUAUUAUUAUGCAGAAGGACAUGAGGAUCACCCAUGUAUGUUAUUAUUAUGUGUUAUGUGU", "44 nM"),
    ("CAUCUGUGAGGAUAUGGUGAGUAGUGCCUGAGCGCUGCUCACCAGAAGGCACAUGAGGAUCACCCAUGUAUGAA", "52.6 nM"),
    ("GCACGGCAUGUAGGAUAUGCAUAGCAUUGCUAUGCAGAAGGACAUGAGGAUCACCCAUGUAUGUAUUCCAUACAAUUCCCGUGC", "5.86 nM"),
    ("ACCUUACAUGAGGAUCACCCAUGUUAGGAUAUCUCGCUUGCGCAAUCACAGCACAAGCAGAGAAGGGACGCGGG", "28.1 nM"),
    ("AAACAAGCAGGGAUGCUUCGCAGGGAGGAUAUCUGACUGGGCGGACAUGAGGAUCACCCAUGUACAGAGAAGGCCCAAAGCACC", "620 nM"),
    ("CAAUUUAUGUCAGGAUAUACAAUACAAUGAUUAGUAGAAGGGAUUAAUACAUGAGGAUCACCCAUGUCAUGUGUCAUCGUACCC", "28.1 nM"),
    ("AUGAGUAAAGCAGGAUAUCUAUUGUCUCUGUAACAUGAGGAUCACCCAUGUAGAGAAGGGCUAAGUCUUACUCUUCGGAGUUGA", "14.2 nM"),
    ("UCUACAUAGAUUCAUCAAUACAGUAAGGAUAUGAGAUACAUGAGGAUCACCCAUGUGCAUGUGAAUUAGAAGGUACAAUUAACU", "15.7 nM"),
    ("CGCUAGUCAGGAUAUACGAACAUGUCAAAAGACGUGAAGGGACAUGAGGAUCACCCAUGUAGAAGGGACUAGCA", "35.7 nM"),
    ("CCGGAAAUACAGGAUAUAGGAGUCAAUAGACUCCUAGAAGGGUAUACAUGAGGAUCACCCAUGUGUCCUACCGG", "35 nM"),
    ("AGAUCCUGAGUCAGGAUAUAGAGACGGUAGUCGGGCUAGAAGGGACAUGAGGAUCACCCAUGUGGGUUCGGGCC", "14.2 nM"),
    ("AGAGCCUCGUGAGGAUAUACAUGAGGAUCACCCAUGUAAUAAGAUCAACGGAGGAAACUCCGAAUGUAGAAGGCACGAGGCUCA", "37.2 nM"),
    ("UGUCUAUAUGAAGGAUAUCUAAGCAUAAACCGUAGAGAAGGUCAAUAGUACAUGAGGAUCACCCAUGUUGGGAUUGAUGGGUUU", "25.3 nM"),
    ("UUCUUGGCAGGAUAUGCUCUCUUAGACAUGAGGAUCACCCAUGUGUUCAUUCUUUCUUUUGCAGAAGGGCCUUAAU", "56.5 nM"),
    ("GAUAAAGGAGUAGGAUAUGCACAUGGUAGGCUUAUCUUUAUGGCGACAUGAGGAUCACCCAUGUUGCAGAAGGGCUUCCCAUUG", "34 nM"),
]
